test system: Staphylococcus aureus; assay: Antibacterial activity against methicillin resistant Staphylococcus aureus M22 incubated for 16 to 18 hrs by broth dilution method; type: functional; conditions: time 16-18 hrs
Output condition met for records whose MIC is lower than 8 µg/mL, condition not met for records at or above 8 µg/mL.

Record C=CCc1cc(-c2ccc(OCCC[N+](C)(C)CC(=O)NCCCC)c(CC=C)c2)c2oc(-c3ccc(Cl)c(Br)c3)nc2c1.[Br-] : is its MIC strictly below 8 µg/mL?
condition not met

* * *

# reported MIC; entries follow
tested on: Staphylococcus aureus; assay: Antibacterial activity against methicillin resistant Staphylococcus aureus M23 incubated for 16 to 18 hrs by broth dilution method; format: functional; conditions: time 16-18 hrs

The cases that follow already have their MIC on record.
>  <Smiles structure>
C=CCc1cc(-c2ccc(OCCC[N+](C)(C)CC(=O)NCCCC)c(CC=C)c2)c2oc(-c3cc(F)c(F)c(F)c3)nc2c1.[Br-]

>  <Obs value>
32 µg/mL

$$$$
>  <Smiles structure>
C=CCc1cc(-c2ccc(OCCC[N+](C)(C)CC(=O)NCCCC)c(CC=C)c2)c2oc(-c3ccc(Cl)cc3)nc2c1.[Br-]

>  <Obs value>
4 µg/mL

$$$$
>  <Smiles structure>
C=CCc1cc(-c2ccc(OCCC[N+](C)(C)CC(=O)NCCCC)c(CC=C)c2)c2oc(-c3ccc(F)cc3Cl)nc2c1.[Br-]

>  <Obs value>
4 µg/mL

$$$$

Provide MIC value for the following compound: C=CCc1cc(-c2ccc(OCCC[N+](C)(C)CC(=O)NCCCC)c(CC=C)c2)c2oc(-c3ccc(Cl)cc3Br)nc2c1.[Br-]
> 128 µg/mL
